study.target: CRBN/DDB1 (Homo sapiens (Human))
Sequence (Q96SW2 whole entry, species assumed): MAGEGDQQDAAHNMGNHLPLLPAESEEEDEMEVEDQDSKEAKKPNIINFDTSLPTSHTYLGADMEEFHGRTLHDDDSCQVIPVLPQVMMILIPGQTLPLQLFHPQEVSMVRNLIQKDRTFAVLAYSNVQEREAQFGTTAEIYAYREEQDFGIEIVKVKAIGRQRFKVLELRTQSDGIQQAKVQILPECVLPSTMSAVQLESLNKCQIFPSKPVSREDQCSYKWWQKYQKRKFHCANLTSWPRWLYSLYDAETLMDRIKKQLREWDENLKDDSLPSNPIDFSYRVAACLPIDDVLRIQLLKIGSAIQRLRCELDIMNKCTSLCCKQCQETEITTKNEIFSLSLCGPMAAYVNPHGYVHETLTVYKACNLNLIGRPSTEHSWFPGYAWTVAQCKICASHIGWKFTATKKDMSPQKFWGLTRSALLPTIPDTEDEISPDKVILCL
Sequence (Q16531 whole entry partner, species assumed): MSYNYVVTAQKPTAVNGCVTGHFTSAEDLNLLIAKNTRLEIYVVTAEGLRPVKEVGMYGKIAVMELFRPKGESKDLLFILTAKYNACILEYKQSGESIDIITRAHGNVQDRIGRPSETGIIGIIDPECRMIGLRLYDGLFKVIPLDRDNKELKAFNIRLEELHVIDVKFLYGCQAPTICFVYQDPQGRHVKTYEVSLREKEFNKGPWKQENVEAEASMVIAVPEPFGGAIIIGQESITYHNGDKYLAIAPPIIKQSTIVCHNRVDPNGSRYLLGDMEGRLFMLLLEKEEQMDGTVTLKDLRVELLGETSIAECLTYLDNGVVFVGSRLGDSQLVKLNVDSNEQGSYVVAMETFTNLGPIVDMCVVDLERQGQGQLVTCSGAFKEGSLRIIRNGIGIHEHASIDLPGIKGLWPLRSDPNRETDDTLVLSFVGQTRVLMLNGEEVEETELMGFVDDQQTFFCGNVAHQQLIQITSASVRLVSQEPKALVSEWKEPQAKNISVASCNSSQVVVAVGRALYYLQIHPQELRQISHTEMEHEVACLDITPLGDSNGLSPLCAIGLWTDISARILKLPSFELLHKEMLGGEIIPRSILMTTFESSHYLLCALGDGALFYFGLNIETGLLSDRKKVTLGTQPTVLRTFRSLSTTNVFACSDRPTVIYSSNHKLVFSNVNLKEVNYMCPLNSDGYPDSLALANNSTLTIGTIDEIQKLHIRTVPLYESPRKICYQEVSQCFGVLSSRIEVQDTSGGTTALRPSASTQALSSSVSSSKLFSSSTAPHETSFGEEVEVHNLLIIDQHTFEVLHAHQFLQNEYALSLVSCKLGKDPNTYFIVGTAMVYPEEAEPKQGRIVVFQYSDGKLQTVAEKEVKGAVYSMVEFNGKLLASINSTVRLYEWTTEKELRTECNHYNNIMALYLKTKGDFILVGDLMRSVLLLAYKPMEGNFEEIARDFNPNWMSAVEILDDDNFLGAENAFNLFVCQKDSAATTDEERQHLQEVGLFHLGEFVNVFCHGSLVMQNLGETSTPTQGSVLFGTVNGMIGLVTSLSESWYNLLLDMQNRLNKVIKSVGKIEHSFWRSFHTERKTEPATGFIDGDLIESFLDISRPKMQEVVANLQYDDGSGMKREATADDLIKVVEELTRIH
experimental.setup: His tagged CRBN+DDB1, Cy5-labeled Thalidomide probe, one hour; read-out: CRBN HTRF IC50
Method: The binding potency was determined using HTRF assay technology (Perkin Elmer). Compounds were serially diluted in DMSO and […] volume was transferred to white 384-well plate.
Catalogue of molecules with associated IC50

molecule | IC50
COc1cc(C(=O)NC2CCC(=O)NC2=O)ncc1N1CCN(CC2CCN(c3ccc([C@@H]4c5ccc(O)cc5CC[C@@H]4c4ccccc4)cc3)CC2)CC1 (stereo partly drawn) | > 5000 nM
O=C1CC[C@H](N2Cc3c(ccc4c3OC[C@H]3CN(CC5CCC6(CC5)CN(c5ncc([C@@H]7c8ccc(O)cc8CC[C@@H]7c7ccccc7)cn5)C6)CCN43)C2=O)C(=O)N1 (single isomer, unassigned) | 50 to 500 nM
O=C1CC[C@H](NC(=O)c2ccc3c(n2)OC[C@H]2CN(CC4CCN(c5ccc([C@@H]6c7ccc(O)cc7CC[C@@H]6c6ccccc6)cc5)CC4)CCN32)C(=O)N1 (single isomer, unassigned) | 500 to 5000 nM
O=C1CC[C@H](N2Cc3c(ccc4c3OC[C@H]3CN(CC5COC6(C5)CN(c5ccc([C@@H]7c8ccc(O)cc8CC[C@@H]7c7ccccc7)cc5)C6)CCN43)C2=O)C(=O)N1 (single isomer, unassigned) [Compound A40] | < 50 nM
O=C1CC[C@H](N2Cc3c(ccc4c3OC[C@H]3CN(CC5CC6(CCN(c7ccc([C@@H]8c9ccc(O)cc9CC[C@@H]8c8ccccc8)cn7)CC6)C5)CCN43)C2=O)C(=O)N1 (single isomer, unassigned) | 50 to 500 nM
O=C1CC[C@@H](Nc2ccc(C3CCN(C[C@@H]4COC5(CCN(c6ccc([C@@H]7c8ccc(O)cc8CC[C@@H]7c7ccccc7)cc6)CC5)C4)CC3)c(F)c2)C(=O)N1 (single isomer, unassigned) | 50 to 500 nM
COc1cc(N2CCC(CN3CCC4(CC3)COc3c4ccc4c3CN([C@H]3CCC(=O)NC3=O)C4=O)CC2)c(F)cc1[C@@H]1c2ccc(O)cc2CC[C@@H]1c1ccccc1 | < 50 nM
O=C1CC[C@H](N2Cc3c(ccc4c3OCC43CCN(CC4CCC5(CC4)CN(c4ccc([C@H]6c7ccc(O)cc7CC[C@H]6c6ccccc6)cc4F)C5)CC3)C2=O)C(=O)N1 | 50 to 500 nM
O=C1CC[C@H](N2Cc3cc4c(cc3C2=O)OC[C@@H]2CN(CC3CCC5(CC3)CN(c3ccc([C@@H]6c7ccc(O)cc7CC[C@@H]6c6ccccc6)cn3)C5)CCN42)C(=O)N1 | 500 to 5000 nM
O=C1CC[C@H](N2Cc3c(ccc4c3OC[C@H]3CN(CC5CCC6(CC5)CN(c5ncc([C@H]7c8ccc(O)cc8CC[C@H]7c7ccccc7)cn5)C6)CCN43)C2=O)C(=O)N1 (single isomer, unassigned) | 50 to 500 nM
O=C1CC[C@H](N2Cc3cc4c(cc3C2=O)OC[C@H]2CN(C[C@@H]3COC5(CCN(c6ccc([C@@H]7c8ccc(O)cc8CC[C@@H]7c7ccccc7)cc6)CC5)C3)CCN42)C(=O)N1 (single isomer, unassigned) | 500 to 5000 nM
COC1(CN2CCN3c4ccc5c(c4OC[C@H]3C2)CN([C@H]2CCC(=O)NC2=O)C5=O)CCN(c2ccc([C@@H]3c4ccc(O)cc4CC[C@@H]3c3ccccc3)cc2)CC1 | 50 to 500 nM
O=C1CC[C@H](N2Cc3c(ccc4c3OCC43CCN(C4CN(CCOc5ccc([C@@H]6c7ccc(O)cc7CC[C@@H]6c6ccccc6)cc5)C4)CC3)C2=O)C(=O)N1 | < 50 nM
O=C1CC[C@H](NC(=O)c2ccc3c(n2)OC[C@H]2CN(C[C@@H]4COC5(CCN(c6ccc([C@@H]7c8ccc(O)cc8CC[C@@H]7c7ccccc7)cc6)CC5)C4)CCN32)C(=O)N1 (single isomer, unassigned) | 500 to 5000 nM
COc1cc(N2CCC3(CC2)CC(CN2CCN4c5ccc(C(=O)N[C@H]6CCC(=O)NC6=O)nc5OC[C@@H]4C2)C3)ccc1[C@H]1c2ccc(O)cc2CC[C@H]1c1ccccc1 (single isomer, unassigned) | > 5000 nM
O=C1CC[C@H](N2Cc3c(ccc4c3OCC43CCN(CC4CCC5(CC4)CN(c4ccc([C@@H]6c7ccc(O)cc7CC[C@@H]6c6ccccc6)cc4F)C5)CC3)C2=O)C(=O)N1 | < 50 nM
O=C1CC[C@H](N2Cc3c(ccc4c3OC[C@H]3CN(CC5COC6(C5)CN(c5ccc([C@H]7c8ccc(O)cc8CC[C@H]7c7ccccc7)cc5)C6)CCN43)C2=O)C(=O)N1 (single isomer, unassigned) | < 50 nM
O=C1CC[C@@H](Nc2ccc(C3CCN(CC4CCC5(CC4)CN(c4ccc([C@@H]6c7ccc(O)cc7CC[C@@H]6c6ccccc6)cc4)C5)CC3)cc2)C(=O)N1 (single isomer, unassigned) | 50 to 500 nM

Just for reference, patent US20260028354A1 is where these values come from.
